The measurements presented in this section are drawn from PubChem BioAssay (NCI).

Would you mind telling me the reported growth inhibition of each entry?
Assay text: NCI Yeast Anticancer Drug Screen. Data for the bub3 strain (AID 167)
Assay conditions: S. cerevisiae bub3 mutant strain, active compounds read high; at 50.0 µM unless noted
The panel holds about 79,000 compounds, 15% with a hit somewhere; the sample as a whole holds those more often.
Give a bare numeral; the unit % is implied.

Please look at this compound and report its growth inhibition: "N#Cc1ccc(OC(=O)Nc2ccc(F)cc2)cc1"
10.7

Please look at this compound and report its growth inhibition: "CN(C)CCNC(=O)Cn1ccc(=O)c2ccc([N+](=O)[O-])cc21"
-5.85

Please look at this compound and report its growth inhibition: "Nc1ncc2c(n1)-c1ccccc1OC2"
-20.9

Please look at this compound and report its growth inhibition: C=C1C(=O)OC2/C=C(\C)C(O)CCC(C)(O)CC(OC(=O)/C(C)=C/C)C12 (configuration not stated)
3.7

Please look at this compound and report its growth inhibition: "COC(=O)c1ccccc1OC"
-2.05

Please look at this compound and report its growth inhibition: "Nc1cccc2c1nc(NCCO)c1ccccc12"
10.7

Please look at this compound and report its growth inhibition: "O=C1CN(CCN2CC(=O)N(CN3CCOCC3)C(=O)C2)CC(=O)N1CN1CCOCC1"
-16.1

Please look at this compound and report its growth inhibition: O=C1CC(c2ccccc2)n2c(nc3ccccc32)N1 (configuration not stated)
-15.4

Please look at this compound and report its growth inhibition: "COc1ccc(C)cc1NC(=O)Nc1ccccc1F"
-0.4

Please look at this compound and report its growth inhibition: "CCN(CCOC)C(C)=O"
-0.45

Please look at this compound and report its growth inhibition: CC(=O)NNC(=O)C(N)Cc1ccc(O)cc1 (configuration not stated)
2.95

Please look at this compound and report its growth inhibition: "Cc1ccc([N+](=O)[O-])cc1NC(=O)Sc1ccc(C(C)(C)C)cc1C"
3.4

* * *

Assay text: NCI Yeast Anticancer Drug Screen. Data for the sgs1 mgt1 strain (AID 161);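 further: 0% = growth of cultures given vehicle only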
Assay conditions: S. cerevisiae sgs1 mgt1 strain, active compounds read high; at 50.0 µM unless noted
This is part of a sample that, as a whole, favours compounds with a hit. Of some 79,000 tested, about 15% had one in any assay. Where a SMILES comes first, the peptide text is derived from it. [ ]: non-standard residue; d: D form. The star is where a group is joined. NMeF = CN[C@@H](Cc1ccccc1)C(=O)O; NMeV = CN[C@H](C(=O)O)C(C)C; Boc = CC(C)(C)OC(=O)*; OBn = c1ccc(CO*)cc1
Would you mind telling me the reported growth inhibition of each entry?
Give a bare numeral; the unit % is implied.

Please look at this molecule and report its growth inhibition: O=C1CC(c2ccccc2)N1c1ccccc1 (configuration not stated)
-11.3

Please look at this molecule and report its growth inhibition: "COc1ccc(/C=C2\CNC/C(=C\c3ccc(OC)cc3)C2=O)cc1"
55.2

Please look at this molecule and report its growth inhibition: "COc1cc(O)c(C/C=C/c2ccccc2)cc1O"
27.6

Please look at this molecule and report its growth inhibition: "Cn1c2ccccc2c2c3c(ccc21)C(=O)N(c1ccccc1)C3=O"
12.9

Please look at this molecule and report its growth inhibition: "CCCCCCOS(=O)(=O)c1ccc(C)cc1"
-2.1

Please look at this molecule and report its growth inhibition: CCCCCCC(C)OB(OC(C)CCCCCC)OC(C)CCCCCC (configuration not stated)
-0.8

Please look at this molecule and report its growth inhibition: CCCCCCC(=O)C/C(=N/NC(N)=S)C(=O)NC1C2CC3CC(C2)CC1C3 (configuration not stated)
-48.7

Please look at this molecule and report its growth inhibition: "COc1ccccc1-n1c(=O)c(N=Nc2ccc(C)cc2)c(O)n(-c2ccccc2C)c1=S"
-17.9

Please look at this molecule and report its growth inhibition: "Cc1ccc(Cl)cc1NC(=O)Nc1ccccc1Cl"
6.05

Please look at this molecule and report its growth inhibition: "N#Cc1c(O)c(N=Nc2ccc(Cl)cc2)c(=O)n2c1[nH]c1ccccc12"
21.2

Please look at this molecule and report its growth inhibition: "CN(C)C(=O)OC(Cn1cncn1)(Cn1cncn1)c1ccc(Cl)cc1Cl"
7.5

Please look at this molecule and report its growth inhibition: "O=c1[nH]c(=O)c2nc3c(=O)[nH]c(=O)[nH]c3nc2[nH]1"
0.95

Please look at this molecule and report its growth inhibition: "Cc1cnc2ccccc2c1/C=C/c1ccc(N(C)C)cc1"
1.55

Please look at this molecule and report its growth inhibition: "N#CCNC(=O)Cc1ccccc1"
-10.2

Please look at this molecule and report its growth inhibition: "Cc1ccc(C)n1CCCCCCCn1c(C)ccc1C"
5.15

Please look at this molecule and report its growth inhibition: "CCOC(=O)C(Cc1c[nH]c2c(N(CCO)CCO)cccc12)(NC(C)=O)C(=O)OCC"
16

Please look at this molecule and report its growth inhibition: "O=C(CC1=Nc2nnc(-c3nnc4n3C(=O)C(CC(=O)c3cccnc3)=N4)n2C1=O)c1cccnc1"
-1.35

Please look at this molecule and report its growth inhibition: "CCCc1onc(-c2noc(CCC)c2CC)c1CC"
-1.9

Please look at this molecule and report its growth inhibition: Cc1ccc(CC2CC(=O)NC2=O)cc1 (configuration not stated)
22.1

Please look at this molecule and report its growth inhibition: CC(C)[C@@H](C(=O)N1CCC[C@H]1C(=O)OCc1ccccc1)N(C)C(=O)[C@H](C(C)C)N(C)C(=O)[C@H](Cc1ccccc1)N(C)C(=O)[C@H](NC(=O)OC(C)(C)C)C(C)C (Boc-[dV][NMeF][NMeV][NMeV]P-OBn)
-38.2

Please look at this molecule and report its growth inhibition: "CS(=O)(=O)OC1Cc2ccccc2C1"
-2.35

Please look at this molecule and report its growth inhibition: "CC(=O)NNc1nc(C)c(C(=O)/C=C/c2ccc(NC(C)=O)cc2)s1"
0.3

* * *

Would you mind telling me the reported growth inhibition of each entry?
Assay text: NCI Yeast Anticancer Drug Screen. Data for the rad50 strain (AID 155);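 further: 0% = growth of vehicle-only cultures of the same strain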
Assay conditions: S. cerevisiae rad50 strain growth inhibition, active compounds read high; at 50.0 µM unless noted
Compounds without any hit were thinned out: in the full panel of roughly 79,000, 15% have a hit.
Give a bare numeral; the unit % is implied.

Please look at this compound and report its growth inhibition: "S=C(NCc1cccc(Cl)c1)Nc1ccccc1"
-4.65

Please look at this compound and report its growth inhibition: COC(=O)CC1(C(=O)OC)NC(=O)c2cc(OC)c(Cl)cc2N1 (stereo not drawn)
-4.2

Please look at this compound and report its growth inhibition: "CC(=O)Nc1nnn(C)n1"
-4.65

Please look at this compound and report its growth inhibition: "NCCSS(=O)(=O)O"
3.25

Please look at this compound and report its growth inhibition: "CCOP(=O)(C/C(=N/NC(C)(C)C)C(=O)Nc1nc2ccc(C)cc2s1)OCC"
-14

Please look at this compound and report its growth inhibition: OC1CC2CCCCC2CC1(O)c1ccc(OCc2ccccc2)c(OCc2ccccc2)c1 (stereo not drawn)
16.6

Please look at this compound and report its growth inhibition: CC(=O)Nc1ccn(C2OC(CO)C(O)C2O)c(=O)n1 (stereo not drawn)
-3.6

Please look at this compound and report its growth inhibition: O=[N+]([O-])c1ccc(N2N=NC(c3ccccc3)C2(c2ccccc2)N2CCOCC2)cc1 (stereo not drawn)
29.6

Please look at this compound and report its growth inhibition: "O=C(Nc1ccc(F)cc1)c1ccc([N+](=O)[O-])cc1"
0.5

Please look at this compound and report its growth inhibition: "Cc1ccc(S(=O)(=O)n2cc(C#N)c(C#N)c2)cc1"
-10.8

Please look at this compound and report its growth inhibition: "Cc1cc(=O)oc2c(C)c(OCCCOc3ccc4c(C)cc(=O)oc4c3C)ccc12"
-29.8

Please look at this compound and report its growth inhibition: "Cc1ncc(CO)c(/C=N\OCc2cccc(Cl)c2)c1O"
31.1

Please look at this compound and report its growth inhibition: CCCCCCCCCCCCN1CCCC(O)C1 (stereo not drawn)
66.8

Please look at this compound and report its growth inhibition: CCOC(=O)C(C)NC(=O)c1ccccc1 (stereo not drawn)
0.25

Please look at this compound and report its growth inhibition: "O=C(Nc1ccc(Br)c2ccccc12)c1ccc2ccccc2c1O"
-0.05

Please look at this compound and report its growth inhibition: CCC(=O)C1(C)OC1C(C)CC(C)C1OC(=O)CC2(O)CC=C(C)C(O2)/C(C)=C/CCCC(OC2CC(OC(N)=O)C(O)C(C)O2)/C=C/C(C)C(O)C1C (stereo not drawn)
78

Please look at this compound and report its growth inhibition: "O=C(c1cccc(C(=O)N2CCOCC2)n1)N1CCOCC1"
-9.95

Please look at this compound and report its growth inhibition: CN(C)CC(O)(C(=O)c1ccccc1)c1ccccc1 (stereo not drawn)
-4.35

Please look at this compound and report its growth inhibition: "CC(C)CCn1c(=O)c2c(ncn2C)n(C)c1=O"
21.9

Please look at this compound and report its growth inhibition: "CCOc1ccc([N+](=O)[O-])cc1[N+](=O)[O-]"
43.3

Please look at this compound and report its growth inhibition: "Nc1cccc(S(=O)(=O)NNc2cc(Cl)ccc2Cl)c1"
98.7

Please look at this compound and report its growth inhibition: "CC(C)NC(=O)OCc1c(COC(=O)NC(C)C)c(-c2ccccc2)n(C)c1-c1ccccc1"
12.6

Please look at this compound and report its growth inhibition: "CN(C)c1ccc(N=C(C#N)C(=O)c2ccccc2)cc1"
-4.3

Please look at this compound and report its growth inhibition: "COC(=O)c1c(C)nc(C)c(N=O)c1-c1ccccc1C(F)(F)F"
6.4

Please look at this compound and report its growth inhibition: CCCCC1(CC)COC(C)(CC)OC1 (stereo not drawn)
29.4

Please look at this compound and report its growth inhibition: "CC(=C/c1ccccc1)/C=C1/NC(=S)NC1=O"
-25.6

Please look at this compound and report its growth inhibition: "CC(=O)CC(C)(C)c1cc(-c2ccccc2)on1"
20.8

Please look at this compound and report its growth inhibition: "O=S=Nc1c(Cl)cc(Cl)cc1Cl"
1.1

Please look at this compound and report its growth inhibition: "CC(=O)OCc1c(COC(C)=O)c(-c2ccc(Cl)cc2)n2c1CCC2"
34

Please look at this compound and report its growth inhibition: "Cc1ccccc1C=NC12CC3CC(CC(C3)C1)C2"
-24.8

Please look at this compound and report its growth inhibition: "CCCOC(=O)c1cccnc1"
-13.2

Please look at this compound and report its growth inhibition: "O=C(NCc1ccccc1)c1n[nH][nH]c1=O"
3.05

Please look at this compound and report its growth inhibition: N#CCc1cccc(Cl)c1Cl (tested in a mixture with another compound)
6.8

Please look at this compound and report its growth inhibition: "CC(=O)Oc1c(I)cc(Cc2nc(C)oc2C)cc1I"
-41.1

Please look at this compound and report its growth inhibition: "NC(N)=NS(=O)(=O)c1ccc(NCc2c3ccccc3nc3ccccc23)cc1"
41.2

Please look at this compound and report its growth inhibition: O=C1/C(=C/c2ccc(Cl)cc2)CCC1CN1CCOCC1 (stereo not drawn)
89.8

Please look at this compound and report its growth inhibition: CCC1([N+](=O)[O-])COC(CCc2ccccc2)OC1 (stereo not drawn)
6.3

Please look at this compound and report its growth inhibition: O=C(Nc1ccc(Cl)cc1)NC1OC(=O)C(Cl)=C1Cl (stereo not drawn)
23.4

Please look at this compound and report its growth inhibition: CCOC(=O)C1Oc2ccc([N+](=O)[O-])cc2C1(C)O (stereo not drawn)
-1.15

Please look at this compound and report its growth inhibition: "COC(=O)C(CCSc1ccccc1)C(=O)OC"
0.85

Please look at this compound and report its growth inhibition: "CCOC(=O)CSC#N"
-2.05

Please look at this compound and report its growth inhibition: "COc1cc(/C=C/C(=O)c2sc(Nc3ccccc3)nc2C)ccc1O"
27.8

Please look at this compound and report its growth inhibition: "Cc1cc(C2=NCC(C)(C)S2)ccc1O"
15.2

Please look at this compound and report its growth inhibition: C=CCC(C)(O)CCC(C)(O)CC=C (stereo not drawn)
-1.95

Please look at this compound and report its growth inhibition: CC(=O)OCC(OC(C)=O)C(OC(C)=O)C(/C=N/N(C(C)=O)S(=O)(=O)c1ccc(/C=C2\NC(=O)NC2=O)cc1)OC(C)=O (stereo not drawn)
-42.5

Please look at this compound and report its growth inhibition: CCOC1=Nc2ccccc2C1(C)CCO (stereo not drawn)
-45.5

Please look at this compound and report its growth inhibition: "C=C[C@@]1(C)C=C2CC[C@@H]3[C@](C)(CCC[C@@]3(C)C(=O)O)[C@H]2CC1"
67.5

Please look at this compound and report its growth inhibition: O=C1CC(c2ccccc2)N1c1ccccc1 (stereo not drawn)
-17.9
